Measurement Protocol: Human liver microsomal intrinsic clearance
Assay type: in vitro ADME
Assay Setup: human, liver microsomes, Intrinsic clearance hCLINT, human liver microsomes
Readout: CLint scaled (mL/min/kg)

Compound | Readout | Unit Abbrev | Value Relation Sign | Assay Value
COc1ccc(CN2CCC[C@@H](OCc3ccc(F)c(C)c3)C2)cc1F [Compound 19b] | CLint scaled | mL/min/kg | = | 674
Fc1ccc(COC2CCN(Cc3ccc4[nH]cnc4c3)CC2)cc1F [Compound 10a] | CLint scaled | mL/min/kg | < | 20
Fc1ccc(COC2CCN(Cc3cc4ccc(Cl)cc4[nH]3)CC2)cc1F [Compound 14a] | CLint scaled | mL/min/kg | < | 30
Fc1ccc(OC[C@@H]2CN(Cc3cn4ccccc4n3)CCO2)cc1F [Compound 17k] | CLint scaled | mL/min/kg | = | 42.1
COc1ccc(CN2CCC[C@H](OCc3ccc(F)c(C)c3)C2)cc1F [Compound 19a] | CLint scaled | mL/min/kg | = | 964
COc1ccc(CN2CCC[C@H](OCc3ccc(C)cc3)C2)cc1F [Compound 19e] | CLint scaled | mL/min/kg | = | 1130
Cc1nc(CN2CCC(OCc3ccc(Cl)c(F)c3)CC2)c2ccccn12 [Compound 16b] | CLint scaled | mL/min/kg | = | 130
FC(F)(F)c1cccc(COC2CCN(Cc3cn4ccccc4n3)CC2)c1 [Compound 17c] | CLint scaled | mL/min/kg | = | 69.3
Fc1cc(COC2CCN(Cc3ccc4[nH]ncc4c3)CC2)ccc1Cl [Compound 12b] | CLint scaled | mL/min/kg | < | 30
Fc1ccc(CN2CCCC23CCN(Cc2cn4ccccc4n2)C3)cc1F (stereo not drawn) [Compound 25a] | CLint scaled | mL/min/kg | = | 223
Cc1cc(NC(=O)CN2CCC3(CCCN(Cc4ccc(F)c(F)c4)C3)C2)ccc1F (stereo not drawn) [Compound 24f] | CLint scaled | mL/min/kg | = | 602
Cc1ccccc1CO[C@H]1CCCN(Cc2ccc3c(cnn3C)c2)C1 [Compound 13g] | CLint scaled | mL/min/kg | = | 334
Cc1ccc(CO[C@H]2CCCN(Cc3cccc(F)c3)C2)cc1 [Compound 19g] | CLint scaled | mL/min/kg | = | 1400
Cn1cnc2cc(CN3CCC(OCc4ccc(Cl)c(F)c4)CC3)ccc21 [Compound 11b] | CLint scaled | mL/min/kg | < | 20
Cc1ccc(CO[C@H]2CCCN(Cc3ccc(C#N)cc3)C2)cc1 [Compound 19f] | CLint scaled | mL/min/kg | = | 842
